Reference source for all entries: PubChem BioAssay

Below: a set of entries, each annotated with reported composite z-score.
Method Notes: COS7 lysate on small-molecule microarray, probe aHis, 635 nm (AID 1123);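 note: z-score combines 667nm fluorescence intensity with signal-to-noise per printed compound spot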
Condition Details: COS7 cell lysate, fluorescence, higher = more signal
The answer should be a number; do not append a unit.

Example results:
# Molecule, composite z-score
measured = [
    ("CC(=O)OC[C@H]1O[C@H](C#CCC2CCCCC2)C=C[C@@H]1OC(C)=O", 0.853),
    ("CC(C)=NOC[C@@H](O)[C@H]1O[C@@H]2OC(C)(C)O[C@@H]2[C@H]1O", 1.85),
]

Q: Report measured composite z-score; entry is O=C(NN=C1C[C@@H](O)[C@@H](O)[C@@H]2[C@@H]3C(=O)N(Cc4ccc5c(c4)OCO5)C(=O)[C@@H]3CC[C@@H]12)OCc1ccccc1
Ans: -0.357

Q: Report measured composite z-score; entry is O=C1C=C[C@@H](O)[C@@H]2[C@@H]3C(=O)N(Cc4ccc5c(c4)OCO5)C(=O)[C@@H]3CC[C@@H]12
Ans: 0.163

Q: Report measured composite z-score; entry is COC(=O)[C@H](C)NC(=O)CCC1CC(OC(=O)NCCc2ccc(F)cc2)CC2(CCCC(COC(=O)NCc3ccccc3)O2)O1 (stereo partly specified)
Ans: 0.253

Q: Report measured composite z-score; entry is COc1ccc(COC(=O)NN=C2C[C@@H](O)[C@@H](O)[C@@H]3[C@@H]4C(=O)N(Cc5ccccc5)C(=O)[C@@H]4CC[C@@H]23)cc1
Ans: 0.275

Q: Report measured composite z-score; entry is CC(C)=CCCC(C)=CCON=C1C[C@@H](O)[C@@H](O)[C@@H]2[C@@H]3C(=O)N(Cc4ccc5c(c4)OCO5)C(=O)[C@@H]3CC[C@H]12
Ans: 1.17

Q: Report measured composite z-score; entry is CC(C)[C@@H](OCc1ccccc1)[C@H](C)C=NO[C@H](C)c1cn([C@@H]2COC[C@H]2O)nn1
Ans: 0.811

----------
Method Notes: binders of probe aFGF2 on microarray, primary screen, stem cell growth factor project, biochemical, small-molecule microarray, fluorescence 635/667 (AID 1067);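 note: measures binding of biotinylated aFGF2 protein to printed compounds on slides; z-score merges feature fluorescence and signal-to-noise across triplicate slides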
Condition Details: higher = more signal
Reported Metric: composite z-score
The answer should be a number; do not append a unit.

Example results:
# Compound, composite z-score
records = [
    ("CC(C)CON=C1C[C@@H](O)[C@@H](O)[C@@H]2[C@@H]3C(=O)N([C@@H](C)c4ccccc4)C(=O)[C@@H]3CC[C@@H]12", -0.145),
    ("O=C1C[C@@H](O)[C@@H](O)[C@@H]2[C@@H]3C(=O)N(c4ccc(F)cc4F)C(=O)[C@@H]3CC[C@H]12", -0.1),
    ("C#CCCCON=C1C[C@@H](O)[C@@H](O)[C@@H]2[C@@H]3C(=O)N(CC)C(=O)[C@@H]3CC[C@H]12", -0.0885),
    ("CCc1cc2c(nc1CC)CCN(CCC(C)=NO[C@@H]1O[C@H](COC(C)=O)[C@@H](OC(C)=O)[C@H](OC(C)=O)[C@H]1OC(C)=O)C2", 0.0333),
    ("CC(C)=CCCC(C)=CCON=C1C[C@@H](O)[C@@H](O)[C@@H]2[C@@H]3C(=O)N(Cc4ccc5c(c4)OCO5)C(=O)[C@@H]3CC[C@@H]12", -0.241),
    ("COC(=O)[C@H](C)NC(=O)CCC1CC(OC(=O)NCCc2ccc(F)cc2)CC2(CCCC(COC(=O)NCC3CCCCC3)O2)O1 (some centres not stated)", -0.116),
]

Q: Report measured composite z-score; entry is CC(C)CON=C1C[C@@H](O)[C@@H](O)[C@@H]2[C@@H]3C(=O)N(Cc4ccccc4)C(=O)[C@@H]3CC[C@H]12
Ans: -0.143

----------
Method Notes: FRG1 promoter luciferase signal modulators, primary screen, FRG1 inhibition for FSHD, cell-based, C2C12 myotubes, firefly/Renilla luciferase, luminescence (AID 1084)
Condition Details: higher = more signal, called active from +8 up or from −8 down
Category key, based on recorded z-score: range A (below -0.01), range B (-0.01 to below 0.7), range C (0.7 or more)

# Compound, Class Assignment
records = [
    ("COC(=O)[C@H](C)NC(=O)CCC1CC(OC(=O)NCc2ccc3c(c2)OCO3)CC2(CCCC(COC(=O)NCCC(C)C)O2)O1 (some centres undefined)", "range C"),
    ("COc1ccc(COC(=O)NN=C2C[C@@H](O)[C@@H](O)[C@@H]3[C@@H]4C(=O)N([C@@H](C)c5ccccc5)C(=O)[C@@H]4CC[C@H]23)cc1", "range A"),
    ("CCOC(=O)[C@H](Cc1ccccc1)NC(=O)CCC1CC(OC(=O)NCc2cccc3ccccc23)CC2(CCCC(COC(=O)NCCc3ccccc3OC)O2)O1 (some centres undefined)", "range C"),
    ("COC(=O)[C@H](C)NC(=O)CCC1CC(OC(=O)NCc2cccc3ccccc23)CC2(CCCC(COC(=O)NCc3ccccc3)O2)O1 (some centres undefined)", "range C"),
]

# next compound below
Q: Classify this compound: COC(=O)[C@H](C)NC(=O)CCC1CC(OC(=O)NCc2ccc3c(c2)OCO3)CC2(CCCC(COC(=O)NCc3ccccc3)O2)O1 (some centres undefined)
Ans: range A

----------
Below: a set of entries, each annotated with reported composite z-score.
Tested on: PRMT1 (protein arginine N-methyltransferase 1)
Method Notes: PRMT1 binders on small-molecule microarrays, primary screen, biochemical, small-molecule microarray, 635 nm fluorescence (AID 1088);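 note: binding of Prmt1 protein to compounds spotted on small-molecule microarray slides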
Condition Details: small-molecule microarray binding, higher = more signal
The answer should be a number; do not append a unit.

Example results:
# Molecule, composite z-score
rows = [
    ("COC(=O)[C@H](C)NC(=O)CCC1CC(OC(=O)NCCc2ccc(F)cc2)CC2(CCCC(COC(=O)NCCc3ccccc3OC)O2)O1 (some centres not stated)", 1.11),
    ("C[C@H]1CC[C@@H](C(=O)O)N[C@@H]1c1cccc(N2CCCC2=O)c1", -0.344),
    ("C#CCCCON=C1C[C@@H](O)[C@@H](O)[C@@H]2[C@@H]3C(=O)N(C[C@@H]4CCCO4)C(=O)[C@@H]3CC[C@H]12", 0.81),
    ("CCOC(=O)CCN1C(=O)[C@H]2[C@H]3[C@H](O)[C@H](O)CC(=NO[C@@H]4O[C@H](CO)[C@@H](O)[C@H](O)[C@H]4O)[C@@H]3CC[C@H]2C1=O", 1.52),
]

Q: Report measured composite z-score; entry is COC(=O)C1=C(C)N(Cc2ccccc2)C2=C3C(=O)OCC[C@@H]3[C@@](O)(C(=O)OC)C(=O)N2[C@@H]1c1ccccc1
Ans: -0.737

Q: Report measured composite z-score; entry is CC(CCC(=O)OC[C@H]1O[C@H](C#Cc2ccccc2)C=C[C@@H]1Oc1ccc(C)cc1)=NO[C@H](C)c1cn([C@@H]2COC[C@H]2O)nn1
Ans: 0.535

Q: Report measured composite z-score; entry is C[C@H]1CC[C@H]2C(=O)O[C@H](CO)CN2[C@@H]1c1ccc(Br)cc1
Ans: 0.995

Q: Report measured composite z-score; entry is CC(C)=NOC(C)CN1CCCc2nc(C)c(C)cc21 (configuration not stated)
Ans: 1.58

Q: Report measured composite z-score; entry is C[C@@H](c1ccccc1)N1C(=O)[C@H]2[C@H]3[C@H](O)[C@H](O)CC(=NOCc4ccccc4)[C@@H]3CC[C@H]2C1=O
Ans: -0.246

Q: Report measured composite z-score; entry is CC(C)[C@@H](OCc1ccccc1)[C@H](C)C=NO[C@H](C)c1cn([C@@H]2COC[C@H]2O)nn1
Ans: 1.55

Q: Report measured composite z-score; entry is C#CCCCON=C1C[C@@H](O)[C@@H](O)[C@@H]2[C@@H]3C(=O)N(CC)C(=O)[C@@H]3CC[C@H]12
Ans: 1.37

----------
Method Notes: binders of probe aFSTL3 on microarray, primary screen, stem cell growth factor project, biochemical, small-molecule microarray, fluorescence 635/667 (AID 1064);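 note: measures binding of the biotinylated anti-FSTL3 antibody to printed compounds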
Condition Details: higher = more signal
Reported Metric: composite z-score
The answer should be a number; do not append a unit.

Q: Report measured composite z-score; entry is C[C@@H]1CC[C@H]2C(=O)OC(CN3C(=O)c4ccccc4C3=O)CN2[C@H]1c1ccc(Br)cc1 (stereo not given in full)
Ans: -0.138

----------
Method Notes: A549 cell viability effects, profiling panel, calcein-AM fluorescence, 48 h, basal (AID 1162); note: test concentration not given here
Condition Details: higher = more signal
Reported Metric: z-score
The answer should be a number; do not append a unit.

Example results:
# Molecule, z-score
measured = [
    ("C[C@]12CCC3c4ccc(OCC5CO5)cc4CCC3C1CC[C@@H]2O (stereo partly drawn)", 0.45),
    ("C[C@H]1CC[C@H]2C(=O)OC(COc3ccc(C(C)(C)C)cc3)CN2[C@@H]1c1ccc(Br)cc1 (stereo partly drawn)", 2.19),
]

Q: Report measured z-score; entry is COc1ccc(O[C@H]2C=C[C@@H](c3ccccc3)O[C@@H]2COC(=O)CCC(C)=NOC[C@@H](O)COCc2ccco2)cc1
Ans: 0.944

Q: Report measured z-score; entry is C#CCCCON=C1C[C@@H](O)[C@@H](O)[C@@H]2[C@@H]3C(=O)N(C[C@@H]4CCCO4)C(=O)[C@@H]3CC[C@H]12
Ans: -0.549

Q: Report measured z-score; entry is O=C1[C@H]2[C@H]3[C@H](O)[C@H](O)CC(=NO[C@@H]4O[C@H](CO)[C@@H](O)[C@H](O)[C@H]4O)[C@H]3CC[C@H]2C(=O)N1C[C@@H]1CCCO1
Ans: 0.676

Q: Report measured z-score; entry is CCOC(=O)[C@H](CC(C)C)NC(=O)CCC1CC(OC(=O)NCCc2ccc(F)cc2)CC2(CCCC(COC(=O)NCCOC)O2)O1 (stereo partly drawn)
Ans: 0.0721

Q: Report measured z-score; entry is COc1ccc2c(c1)O[C@@H](c1cccc(C(F)(F)F)c1)[C@H](O)C2=O
Ans: 0.759

Q: Report measured z-score; entry is CC(C)(C)N1C(=O)[C@H]2[C@@H]3C(=CC[C@H]2C1=O)C(=O)[C@H]1O[C@H]1[C@H]3O
Ans: -2.32
